STUDY TARGET: FKBP52 (Homo sapiens, UniProt Q02790)
Sequence (Q02790 50-138 limits assumed): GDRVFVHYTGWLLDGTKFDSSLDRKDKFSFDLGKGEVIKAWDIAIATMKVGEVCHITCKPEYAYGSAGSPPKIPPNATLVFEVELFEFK
Entries and their Ki values follow.

compound="COc1ccc(OCCN2CCC3CCCC(C2=O)N3S(=O)(=O)c2cc(Cl)c(O)c(Cl)c2)cc1OC (stereo not drawn) [Ref. 3, reference compound]" study_target="FKBP52 (Homo sapiens, UniProt Q02790)" quantity_name=Ki result_value="1000 to 5000 nM"
compound="COc1ccc(OCCN2C[C@H](C(C)(C)O)[C@H]3CCC[C@@H](C2=O)N3S(=O)(=O)c2cc(Cl)cc(Cl)c2)cc1OC [Compound D3]" study_target="FKBP52 (Homo sapiens, UniProt Q02790)" quantity_name=Ki result_value="≤ 100 nM"

Measured Ki (FKBP52 (Homo sapiens, UniProt Q02790)), entry COc1ccc(OCCN2C[C@H]([C@H](O)CO)C3CCCC(C2=O)N3S(=O)(=O)c2cc(Cl)cc(Cl)c2)cc1OC (stereo partly drawn) [C2(C2a/b)] : ≤ 100 nM

* * *

STUDY TARGET: FKBP51 (Homo sapiens)
Sequence (Q13451 42-130 limits assumed): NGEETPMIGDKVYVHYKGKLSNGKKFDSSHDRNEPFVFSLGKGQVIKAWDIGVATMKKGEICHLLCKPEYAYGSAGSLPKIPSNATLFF
Entries and their Ki values follow.

molecule="C=CC1CN(Cc2ccccn2)C(=O)C2CCCC1N2S(=O)(=O)c1ccc(NC(C)=O)c(Cl)c1 (stereo in doubt)" quantity_name=Ki result_value="100 to 500 nM"
molecule=C=C[C@@H]1CN(Cc2ccccn2)C(=O)[C@@H]2CCC[C@H]1N2S(=O)(=O)c1cc(Cl)c(NC(C)=O)c(Cl)c1 quantity_name=Ki result_value="≤ 100 nM"
molecule=C=C[C@@H]1CN(Cc2ccccn2)C(=O)[C@@H]2CCC[C@H]1N2S(=O)(=O)c1cc(Br)cc(C(N)=O)c1 quantity_name=Ki result_value="100 to 500 nM"
molecule="C=CC1CN(Cc2ccccn2)C(=O)C2CCCC1N2S(=O)(=O)c1ccc(NC(C)=O)c(Br)c1 (stereo in doubt)" quantity_name=Ki result_value="100 to 500 nM"
molecule="C=CC1CN(Cc2ccccn2)C(=O)C2CCCC1N2S(=O)(=O)c1ccc(OC)c(Cl)c1 (stereo in doubt)" quantity_name=Ki result_value="100 to 500 nM"
molecule="COc1ccc(OCCN2CCC3CCCC(C2=O)N3S(=O)(=O)c2cc(Cl)c(O)c(Cl)c2)cc1OC (stereo not shown) [Ref. 3, reference compound]" quantity_name=Ki result_value="1000 to 5000 nM"

Now for the molecule whose Ki we want.
Value of measured Ki for the entry C=CC1CNC(=O)C2CCCC1N2S(=O)(=O)c1cc(Cl)cc(Cl)c1 (stereo in doubt) : 500 to 1000 nM

* * *

Entries and their Ki values follow.
STUDY TARGET: UniProtKB Q02790

Example entries begin here.
compound="COCCN1CC(COC)C2CCCC(C1=O)N2S(=O)(=O)c1cc(Cl)cc(Cl)c1 (stereo in doubt)" quantity_name=Ki result_value="100 to 500 nM"
compound=CO[C@H]1CN(C)C(=O)[C@@H]2CCC[C@H]1N2S(=O)(=O)c1cc(Cl)cc(Cl)c1 quantity_name=Ki result_value="500 to 1000 nM"

Measured Ki (UniProtKB Q02790), entry `C#CCN1C[C@H](COC)[C@H]2CCC[C@@H](C1=O)N2S(=O)(=O)c1cc(Br)cc(C(=O)OC)c1` : 100 to 500 nM

Measured Ki (UniProtKB Q02790), entry C=CC1CN(Cc2ccccn2)C(=O)C2CCCC1N2S(=O)(=O)c1cc(Br)cc(C(=O)OC)c1 (stereo in doubt) : ≤ 100 nM

* * *

STUDY TARGET: FKBP52 (Homo sapiens, UniProt Q02790)
Sequence (Q02790 50-138 limits assumed): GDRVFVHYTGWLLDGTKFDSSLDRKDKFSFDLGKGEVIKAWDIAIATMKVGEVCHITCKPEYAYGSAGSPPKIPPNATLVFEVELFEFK
pKi: −log10 of the molar value.
Entries and their pKi values follow.

Example entries begin here.
molecule="CCC1CN(Cc2ccccn2)C(=O)C2CCCC1N2S(=O)(=O)c1cc(Cl)cc(Cl)c1 (stereo in doubt)" result_value="≥ 7.00"
molecule="C=CC1CN(Cc2ccccn2)C(=O)C2CCCC1N2S(=O)(=O)c1ccc2ncsc2c1 (stereo in doubt)" result_value="6.30 to 7.00"
molecule="C=CC1CN(Cc2ccccn2)C(=O)C2CCCC1N2S(=O)(=O)c1ccccc1 (stereo in doubt)" result_value="6.00 to 6.30"

Value of measured pKi for the entry C=CC1CN(Cc2ccccn2)C(=O)C2CCCC1N2S(=O)(=O)c1ccc(OC)c(Cl)c1 (stereo in doubt) : 6.30 to 7.00

* * *

STUDY TARGET: UniProtKB Q02790
Sequence (Q02790 50-138 limits assumed): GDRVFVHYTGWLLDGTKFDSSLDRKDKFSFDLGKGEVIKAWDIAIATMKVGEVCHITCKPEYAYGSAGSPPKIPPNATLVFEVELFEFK
EXPERIMENT DESCRIPTION: Fluorescence polarization (FP) assay, binding to the FK506-binding domain of FKBP52
CONDITION CONTEXT: FK506-binding domain of FKBP52 (FKBP52FK1), competition with fluorescent ligand 2b
pKi: −log10 of the molar value.
QUANTITY NAME: pKi

molecule="COc1ccc(OCCN2CCC3CCCC(C2=O)N3S(=O)(=O)c2cc(Cl)cc(Cl)c2)cc1OC (stereo not shown) [Ref. 1, reference compound]" result_value="5.30 to 6.00"
molecule=COC[C@H]1CN(Cc2cnnn2C(=O)c2ccccc2)C(=O)[C@@H]2CCC[C@H]1N2S(=O)(=O)c1cccc(F)c1 result_value="6.30 to 7.00"
molecule=COC[C@H]1CN(Cc2cnn[nH]2)C(=O)[C@@H]2CCC[C@H]1N2S(=O)(=O)c1ccc(-c2ncccn2)cc1 result_value="≥ 7.00"
molecule=COC[C@H]1CN(Cc2cnn[nH]2)C(=O)[C@@H]2CCC[C@H]1N2S(=O)(=O)c1cccc(C(N)=O)c1 result_value="≥ 7.00"
molecule="C=CC1CN(CC(=O)O)C(=O)C2CCCC1N2S(=O)(=O)c1cc(Cl)cc(Cl)c1 (stereo in doubt)" result_value="6.30 to 7.00"

Value of measured pKi for the entry O=C1NCCC2CCCC1N2S(=O)(=O)c1ccc2sc(=O)[nH]c2c1 (stereo not shown) [Ref. 4, reference compound] : < 5.30

Value of measured pKi for the entry `C#CCN1C[C@H](COC)[C@H]2CCC[C@@H](C1=O)N2S(=O)(=O)c1ccc(-c2ncccn2)cc1` : 6.30 to 7.00

* * *

STUDY TARGET: FKBP52 (Homo sapiens, UniProt Q02790)
Sequence (Q02790 50-138 limits assumed): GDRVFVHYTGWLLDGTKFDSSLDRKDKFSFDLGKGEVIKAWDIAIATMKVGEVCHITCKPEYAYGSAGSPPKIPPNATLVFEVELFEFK
pKi: −log10 of the molar value.
QUANTITY NAME: pKi

Example entries begin here.
compound="C=CC1CN(Cc2ccccn2)C(=O)C2CCCC1N2S(=O)(=O)c1cccc(Br)c1 (stereo in doubt)" result_value="≥ 7.00"
compound="C=CC1CN(Cc2ccccn2)C(=O)C2CCCC1N2S(=O)(=O)c1cccc(C(N)=O)c1 (stereo in doubt)" result_value="6.30 to 7.00"
compound=C#CCN1C[C@H](COC)[C@H]2CCC[C@@H](C1=O)N2S(=O)(=O)c1ccc(-c2ccccc2)nc1 result_value="6.30 to 7.00"
compound=O=C1[C@@H]2CCC[C@H]([C@@H](C(F)F)CN1Cc1ccccn1)N2S(=O)(=O)c1cc(Cl)cc(Cl)c1 result_value="≥ 7.00"
compound=COCCN1C[C@H](C=O)[C@H]2CCC[C@@H](C1=O)N2S(=O)(=O)c1cc(Cl)cc(Cl)c1 result_value="6.30 to 7.00"

Value of measured pKi for the entry `C=C[C@@H]1CN(Cc2ccco2)C(=O)[C@@H]2CCC[C@H]1N2S(=O)(=O)c1cc(Cl)cc(Cl)c1` : 5.30 to 6.00

Value of measured pKi for the entry C=CC1CN(Cc2ccccn2)C(=O)C2CCCC1N2S(=O)(=O)c1ccc(NC(C)=O)c(Cl)c1 (stereo in doubt) : 6.30 to 7.00

* * *

STUDY TARGET: FKBP51 (Homo sapiens)
Sequence (Q13451 42-130 limits assumed): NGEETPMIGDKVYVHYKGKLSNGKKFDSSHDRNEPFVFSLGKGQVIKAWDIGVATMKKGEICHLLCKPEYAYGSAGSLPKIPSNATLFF
QUANTITY NAME: Ki

Example entries begin here.
compound=O=C1NC[C@H](O)[C@H]2CCC[C@@H]1N2S(=O)(=O)c1cc(Cl)cc(Cl)c1 result_value="500 to 1000 nM"
compound=C=C[C@@H]1CN(Cc2ccncn2)C(=O)[C@@H]2CCC[C@H]1N2S(=O)(=O)c1cc(Cl)cc(Cl)c1 result_value="100 to 500 nM"
compound=O=C1NC[C@@H](O)[C@H]2CCC[C@@H]1N2S(=O)(=O)c1cc(Cl)cc(Cl)c1 result_value="1000 to 5000 nM"

Measured Ki (FKBP51 (Homo sapiens)), entry `C#CCN1C[C@H](COC)[C@H]2CCC[C@@H](C1=O)N2S(=O)(=O)c1ccc(NC(C)=O)c(Br)c1` : 100 to 500 nM

Measured Ki (FKBP51 (Homo sapiens)), entry C=CC1CN(Cc2ccccn2)C(=O)C2CCCC1N2S(=O)(=O)c1cccnc1 (stereo in doubt) : 100 to 500 nM

Measured Ki (FKBP51 (Homo sapiens)), entry `CO[C@H]1CN(C)C(=O)[C@@H]2CCC[C@H]1N2S(=O)(=O)c1cc(Cl)cc(Cl)c1` : 500 to 1000 nM

Measured Ki (FKBP51 (Homo sapiens)), entry `COC[C@H]1CN(Cc2cnn[nH]2)C(=O)[C@@H]2CCC[C@H]1N2S(=O)(=O)c1ccc(-c2ccccc2)nc1` : ≤ 100 nM

Measured Ki (FKBP51 (Homo sapiens)), entry `COC[C@H]1CN(Cc2cnnn2C(=O)c2ccccc2)C(=O)[C@@H]2CCC[C@H]1N2S(=O)(=O)c1cccc(F)c1` : 100 to 500 nM

Measured Ki (FKBP51 (Homo sapiens)), entry C=CC1CN(CC(=O)O)C(=O)C2CCCC1N2S(=O)(=O)c1cc(Cl)cc(Cl)c1 (stereo in doubt) : 100 to 500 nM

Measured Ki (FKBP51 (Homo sapiens)), entry C=CC1CN(Cc2ccccn2)C(=O)C2CCCC1N2S(=O)(=O)c1cccc(Cl)c1 (stereo in doubt) : 100 to 500 nM
